Ki, Coagulation factor VII (Homo sapiens), per-entry values.
readout-type: Ki (nM)

Answered examples (2):
CC(NC(=O)CNC(=O)Nc1ccc(C(=N)N)cc1)c1ccc(N2CCOCC2)c(Br)c1 (centres undefined) | 15
CC(NC(=O)CNC(=O)Nc1ccc(C(=N)N)cc1)c1ccc(N2CCOCC2)cc1 (centres undefined) | 142

(a) CC(NC(=O)CNC(=O)Nc1ccc(C(=N)N)cc1)c1ccc(C(=O)Nc2cccc(Oc3ccccc3)c2)cc1 (centres undefined)
(b) CC(NC(=O)CNC(=O)Nc1ccc(C(=N)N)cc1)c1ccc(Oc2ccccc2)cc1 (centres undefined)
Which numeric Ki is bigger, that of a or that of b ? Return value: the label identifying the chosen record.
b

----------
Measured Ki on Coagulation factor VII (Homo sapiens, UniProt P08709) follows.
Sequence (P08709 61-212 limits assumed): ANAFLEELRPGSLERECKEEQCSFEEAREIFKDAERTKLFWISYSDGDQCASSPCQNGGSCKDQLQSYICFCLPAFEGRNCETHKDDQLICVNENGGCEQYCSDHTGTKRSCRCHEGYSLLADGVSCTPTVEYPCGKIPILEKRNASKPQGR
Sequence (P08709 213-466 limits assumed): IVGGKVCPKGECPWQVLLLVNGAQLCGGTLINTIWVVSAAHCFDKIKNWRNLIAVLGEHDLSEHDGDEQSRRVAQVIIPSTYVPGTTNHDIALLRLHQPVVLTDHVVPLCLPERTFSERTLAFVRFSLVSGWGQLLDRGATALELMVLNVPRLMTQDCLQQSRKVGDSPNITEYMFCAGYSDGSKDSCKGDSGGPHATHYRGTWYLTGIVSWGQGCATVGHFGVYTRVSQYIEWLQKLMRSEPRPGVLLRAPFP
readout-type: Ki (nM)

COc1cccc(COc2ccc(C(C)NC(=O)CNC(=O)Nc3ccc(C(=N)N)cc3)cc2)c1 (stereo not given) | 20
CC(NC(=O)CNC(=O)Nc1ccc(C(=N)N)cc1)c1ccc(N2CCOCC2)c(C(F)(F)F)c1 (stereo not given) | 30
CC(NC(=O)CNC(=O)Nc1ccc(C(=N)N)cc1)c1ccc(NC(=O)c2ccccc2)cc1 (stereo not given) | 34

(P) CC(NC(=O)CNC(=O)Nc1ccc(C(=N)N)cc1)c1ccc(C(=O)Nc2ccccc2)cc1 (stereo not given)
(Q) CC(NC(=O)CNC(=O)Nc1ccc(C(=N)N)cc1)c1ccc(Cc2ccccc2)cc1 (stereo not given)
For the pair P and Q , which member has the lower Ki number? Refer to your chosen entry by its label in the reply.
P
